biological target: Taq DNA polymerase (K540C/H784C)/R25S (UniProt P19821 P19821:1-832, K540C,H784C,R25S); experiment: EMSA; 1x TAE with 2 mM EDTA, pH 8.3; above highest tested 1000 nM; conditions: tags: Fermentas; label: 5'-33P
Sequence (P19821 whole entry R25S/K540C/H784C, one chain of several): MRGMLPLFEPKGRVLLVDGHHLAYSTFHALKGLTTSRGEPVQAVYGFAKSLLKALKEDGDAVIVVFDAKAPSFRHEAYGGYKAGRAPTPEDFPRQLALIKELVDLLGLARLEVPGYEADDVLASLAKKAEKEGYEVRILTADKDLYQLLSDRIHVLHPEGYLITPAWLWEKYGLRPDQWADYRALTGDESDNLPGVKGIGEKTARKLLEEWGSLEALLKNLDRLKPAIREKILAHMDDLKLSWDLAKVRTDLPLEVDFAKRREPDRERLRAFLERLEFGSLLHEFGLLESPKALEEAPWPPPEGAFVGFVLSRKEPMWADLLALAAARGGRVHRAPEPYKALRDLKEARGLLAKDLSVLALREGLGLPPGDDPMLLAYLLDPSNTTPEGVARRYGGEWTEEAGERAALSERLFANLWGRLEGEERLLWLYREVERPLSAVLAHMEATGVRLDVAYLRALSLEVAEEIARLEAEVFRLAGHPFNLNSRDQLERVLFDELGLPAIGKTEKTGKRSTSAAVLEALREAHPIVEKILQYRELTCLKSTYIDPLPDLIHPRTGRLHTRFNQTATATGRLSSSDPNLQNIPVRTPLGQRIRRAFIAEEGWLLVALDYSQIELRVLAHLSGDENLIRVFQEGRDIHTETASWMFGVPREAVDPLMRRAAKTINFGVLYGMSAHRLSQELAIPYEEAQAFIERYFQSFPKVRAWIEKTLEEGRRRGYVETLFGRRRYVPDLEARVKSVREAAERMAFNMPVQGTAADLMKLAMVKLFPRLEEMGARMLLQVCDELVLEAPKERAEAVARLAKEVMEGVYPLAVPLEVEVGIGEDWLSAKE
MEASURED_ENDPOINT: Kd (µM)
One number for each entry, in µM.

// recorded Kd for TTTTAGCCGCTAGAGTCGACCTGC (ssDNA) [24 nt primer] : 2.7

This collection of values is drawn from patent US20110059490.
